Would you kindly list IC50 for each of these compounds?
System: PBMC from healthy donors
Assay Overview: [3H]Thymidine Incorporation (MLR)
Assay type: cell-based
Test Conditions: mixed PBMC responder/stimulator 1:1, 4 days
Form entry: enter the amount, then its unit.

[[record]]
compound = "CCc1sc(-c2ccncc2)nc1-c1ccc2c(c1)OCC(c1c(F)cccc1F)N2 (stereo not shown) [Example 17]"
observed_value = "440 nM"

[[record]]
compound = "CCc1sc(-c2cnccn2)nc1-c1ccc2c(c1)OCC(c1c(F)cccc1F)N2 (stereo not shown) [Example 16]"
observed_value = "180 nM"

[[record]]
compound = "CCn1nc(-c2cccnc2)cc1-c1ccc2c(c1)OCC(c1c(F)cccc1F)N2 (stereo not shown) [Example 7]"
observed_value = "330 nM"

[[record]]
compound = "CCc1sc(-c2cc(C)on2)nc1-c1ccc2c(c1)OCC(c1c(F)cccc1F)N2 (stereo not shown) [Example 20]"
observed_value = "430 nM"

[[record]]
compound = "Cc1sc(-c2cccnc2)nc1-c1ccc2c(c1)OCC(c1c(F)cccc1F)N2 (stereo not shown) [Example 12]"
observed_value = "190 nM"

[[record]]
compound = "CCc1sc(-c2cccnc2)nc1-c1ccc2c(c1)OCC(c1c(F)cccc1F)N2 (stereo not shown) [Example 14]"
observed_value = "100 nM"


Let us examine a further case.
[in] GET /values?readout=IC50&system=PBMC from healthy donors&item= CCn1nc(C(F)(F)F)cc1-c1ccc2c(c1)OCC(c1c(F)cccc1F)N2 (stereo not shown) [Example 6]
[out] 110 nM
